These measurements were taken from patent US9725416B2.

- TARGET_OR_TEST_SYSTEM: human mGlu4 receptor (Homo sapiens, UniProt Q14833)
- Construct: expressed in transfected cells; host or cells: HEK-293 (monoclonal, stably transfected)
- Sequence (Q14833 33-912): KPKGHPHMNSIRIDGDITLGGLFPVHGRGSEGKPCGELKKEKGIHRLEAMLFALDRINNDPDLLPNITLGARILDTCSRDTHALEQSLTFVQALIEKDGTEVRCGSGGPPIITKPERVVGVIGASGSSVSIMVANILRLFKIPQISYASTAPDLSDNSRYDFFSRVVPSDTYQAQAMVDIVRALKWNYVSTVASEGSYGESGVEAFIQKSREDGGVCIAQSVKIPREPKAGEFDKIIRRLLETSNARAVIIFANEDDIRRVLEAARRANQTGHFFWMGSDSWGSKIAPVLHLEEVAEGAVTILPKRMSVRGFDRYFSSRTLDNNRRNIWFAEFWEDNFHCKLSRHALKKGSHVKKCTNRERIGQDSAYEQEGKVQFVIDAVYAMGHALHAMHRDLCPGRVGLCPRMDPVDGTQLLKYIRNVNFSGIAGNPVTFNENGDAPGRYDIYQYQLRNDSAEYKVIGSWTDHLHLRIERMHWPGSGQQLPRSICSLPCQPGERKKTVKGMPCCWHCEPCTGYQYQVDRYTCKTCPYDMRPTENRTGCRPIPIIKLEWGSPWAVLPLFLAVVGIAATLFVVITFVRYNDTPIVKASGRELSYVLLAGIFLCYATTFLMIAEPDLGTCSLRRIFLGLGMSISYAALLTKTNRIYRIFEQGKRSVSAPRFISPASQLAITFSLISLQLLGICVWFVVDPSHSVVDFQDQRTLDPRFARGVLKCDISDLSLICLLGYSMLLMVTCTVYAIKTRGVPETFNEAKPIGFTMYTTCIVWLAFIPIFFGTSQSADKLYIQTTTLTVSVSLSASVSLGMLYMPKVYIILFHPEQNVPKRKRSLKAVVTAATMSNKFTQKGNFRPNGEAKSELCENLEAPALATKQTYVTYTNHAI
- ASSAY_PROCEDURE: Ca2+ mobilization in vitro assay on recombinant human mGlu4 expressed in HEK293 cells (mGlu4 PAM)
- Assay type: cell-based
- STUDY_CONDITIONS: HEK-293 cells, Ca2+ mobilization, L-AP4 added at EC20
- Description: Determination of EC50 Values Using a Ca2+ mobilization in vitro Assay on Recombinant Human mGlu4 Expressed in HEK293 cells: […] Responses were measured as peak increase in fluorescence minus basal (i.e. fluorescence without addition of L-AP4), normalized to the maximal stimulatory effect obtained with saturating concentrations of L-AP4. […]
TEST_READOUT: EC50 (nM)
Entry rule: numbers only, all in nM.

Some solved entries appear below for comparison.
{"columns": ["COMPOUND", "RECORDED_VALUE"],
 "data": [
  ["CCN1C(=O)N(c2c(F)cc(C#Cc3ccccc3)cc2F)C(=O)C[C@@]1(C)c1ccnc(C)c1 [Example 77]", 68],
  ["CN1C(=O)N(c2c(F)cc(C#Cc3ccccc3)cc2F)C(=O)C[C@@]1(C)c1ccnc(Cl)c1 [Example 60]", 38]
]}

// query What value of EC50 has been recorded for this entry: CN1C(=O)N(c2c(F)cc(C#Cc3ccccc3)cc2F)C(=O)C[C@@]1(C)c1cnc2c(ccn2C)c1 [Example 84]
// result 40

// query Suppose we examine the compound CN1C(=O)N(c2c(F)cc(C#Cc3cccnc3)cc2F)C(=O)CC1(C)C1CCCCC1 (racemic) [Example 31] ; what EC50 value has been reported?
// result 245

// query Entry under review: CN1C(=O)N(c2c(F)cc(C#Cc3cccnc3)cc2F)C(=O)C[C@@]1(C)c1ccnc(Cl)c1 [Example 64] . Reported EC50?
// result 124

// query Dear colleague, I am looking for the recorded EC50 of the following compound: CN1C(=O)N(c2c(F)cc(C#Cc3ccccc3)cc2F)C(=O)[C@H]2CCC[C@H]21 (racemic) [Example 11]
// result 163

// query Form field: reported EC50 of CCN1C(=O)N(c2c(F)cc(C#Cc3ccccc3)cc2F)C(=O)C[C@@]1(C)c1cccnc1 [Example 52]
// result 48

// query Can you look up the measured EC50 of CN1C(=O)N(c2c(F)cc(C#Cc3ccccc3)cc2F)C(=O)CC1(C)c1ccc(Cl)nc1 (racemic) [Example 51] for me?
// result 88

// query Name the recorded EC50 for CC12CC(=O)N(c3c(F)cc(C#Cc4ccccc4)cc3F)C(=O)N1CCN(Cc1ccccc1)C2=O (racemic) [Example 37] .
// result 131

// query So what's the measured EC50 for this one? CN1C(=O)N(c2c(F)cc(C#Cc3ccccc3)cc2F)C(=O)CC1(C)C(C)(C)C (racemic) [Example 44]
// result 66

// query Suppose we examine the compound CN1C(=O)N(c2c(F)cc(C#Cc3ccccc3)cc2F)C(=O)C[C@@]1(C)c1ccc(=O)[nH]c1 [Example 65] ; what EC50 value has been reported?
// result 36

// query Endpoint output: EC50 of CN1C(=O)N(c2c(F)cc(C#Cc3cccnc3)cc2Cl)C(=O)CC1(C)c1cccnc1 (racemic) [Example 33] . Value?
// result 171

// query Can you share its EC50? I mean this compound: CN1C(=O)N(c2c(F)cc(C#Cc3ccccc3)cc2F)C(=O)C[C@@]1(C)c1ccn(C)c(=O)c1 [Example 75]
// result 55
